resultType: pKd
pKd field: float, defined as -log10 of concentration (mol/L).

Kindly state the measured pKd obtained for N[C@H](C(=O)O)C1[C@@H](C(=O)O)[C@@H]1C(=O)O (stereo partly shown) with UniProt:Q14416.
Sequence (Q14416 19-872): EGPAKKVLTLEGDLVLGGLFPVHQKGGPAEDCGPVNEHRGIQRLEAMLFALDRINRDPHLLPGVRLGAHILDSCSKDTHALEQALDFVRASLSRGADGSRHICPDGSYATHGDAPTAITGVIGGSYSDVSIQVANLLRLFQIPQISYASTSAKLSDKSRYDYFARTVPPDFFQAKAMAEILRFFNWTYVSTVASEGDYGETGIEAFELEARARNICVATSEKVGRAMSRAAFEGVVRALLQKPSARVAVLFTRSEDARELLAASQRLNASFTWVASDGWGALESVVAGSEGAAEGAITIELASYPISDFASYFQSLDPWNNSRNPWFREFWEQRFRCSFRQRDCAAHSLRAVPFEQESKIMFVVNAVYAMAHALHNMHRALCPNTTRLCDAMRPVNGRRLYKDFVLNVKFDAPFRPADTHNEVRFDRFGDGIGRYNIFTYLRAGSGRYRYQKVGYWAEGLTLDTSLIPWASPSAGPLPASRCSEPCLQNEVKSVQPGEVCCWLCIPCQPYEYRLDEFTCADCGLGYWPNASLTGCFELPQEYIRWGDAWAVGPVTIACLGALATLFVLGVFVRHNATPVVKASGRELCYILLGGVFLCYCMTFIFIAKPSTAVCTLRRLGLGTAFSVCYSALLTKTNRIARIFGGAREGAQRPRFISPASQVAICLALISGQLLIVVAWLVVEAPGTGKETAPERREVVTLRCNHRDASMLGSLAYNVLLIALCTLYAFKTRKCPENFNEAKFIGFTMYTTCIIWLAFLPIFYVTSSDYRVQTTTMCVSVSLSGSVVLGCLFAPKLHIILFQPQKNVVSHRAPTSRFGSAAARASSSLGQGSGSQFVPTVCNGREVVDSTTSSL
6.70

Measured values drawn from paper PMC4317228 for this set.
